Measured Affinity ELISA CPE mutant ratio (1:3, pH 6.0/7.4) values are reported for all entries that follow.
- TEST_TARGET: T1, Axl protein (human, UniProt P30530 26-451)
- T1 construct: extracellular domain; also called human Axl; hAxl
- T1 sequence (looked up): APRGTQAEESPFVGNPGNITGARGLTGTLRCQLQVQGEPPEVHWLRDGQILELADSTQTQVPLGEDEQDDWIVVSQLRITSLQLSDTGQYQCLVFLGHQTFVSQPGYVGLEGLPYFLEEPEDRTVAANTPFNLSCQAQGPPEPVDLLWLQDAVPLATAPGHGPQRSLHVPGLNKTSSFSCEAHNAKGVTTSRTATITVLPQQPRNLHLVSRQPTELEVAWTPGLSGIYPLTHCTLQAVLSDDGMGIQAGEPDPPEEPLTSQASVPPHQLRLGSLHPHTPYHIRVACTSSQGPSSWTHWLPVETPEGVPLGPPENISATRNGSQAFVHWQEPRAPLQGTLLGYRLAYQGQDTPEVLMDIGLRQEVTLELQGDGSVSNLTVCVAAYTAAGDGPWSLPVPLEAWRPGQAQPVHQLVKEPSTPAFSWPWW
- ASSAY_INFO: ELISA, 1:3 dilution, pH 6.0 over pH 7.4
Record the value in ratio, omitting the unit from your answer.

{"BINDER": "LC-T097I (antibody, V domains shown) VH: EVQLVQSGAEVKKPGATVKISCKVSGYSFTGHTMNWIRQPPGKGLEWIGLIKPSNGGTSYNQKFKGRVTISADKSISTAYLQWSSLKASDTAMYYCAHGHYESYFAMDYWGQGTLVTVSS VL: DIQMTQSPSSLSASVGDRVTITCKASQDVSSAVAWYQQKPGQAPRLLIYWASTRHTGVPSRFSGSGSGTEFTLTISSLQPDDFATYYCQEHFSTPLIFGQGTKVEIK", "RESULT_VALUE": 3.09}

Lookup: Suppose we examine the binder LC-V029G (antibody, V domains shown) VH: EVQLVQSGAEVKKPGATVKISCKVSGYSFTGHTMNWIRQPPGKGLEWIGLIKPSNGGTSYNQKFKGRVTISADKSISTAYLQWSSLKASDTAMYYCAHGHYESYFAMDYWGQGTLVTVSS VL: DIQMTQSPSSLSASVGDRVTITCKASQDGSSAVAWYQQKPGQAPRLLIYWASTRHTGVPSRFSGSGSGTEFTLTISSLQPDDFATYYCQEHFSTPLTFGQGTKVEIK ; what Affinity ELISA CPE mutant ratio (1:3, pH 6.0/7.4) value has been reported?
Found: 1.94

The measured values listed here are drawn from patent US20190177417A1.
